ASSAYED TARGET: UniProt A0A889XLB8
ASSAY PROTOCOL: Fluorescence-based competitive binding assay with 1-NPN probe
REPORTED CONDITIONS: KD, competitive displacement of 1-NPN; protein/1-NPN both at 2 μM; ligand 2–30 μM; KD = IC50/(1 + [1-NPN]/K1-NPN); mean ± SE
MEASUREMENT LABEL: pKd
# pKd = -log10(concentration in molar units)

query: Look up and report measured pKd for this entry: C=C(C)[C@H]1CC=C(C)CC1 [Dipentene]
result: 4.83

query: Provide measured pKd value, entry: C=CCCCCCCC [1-Nonene]
result: 4.91

query: // Input: CC1=CCC2CC1C2(C)C (stereo not drawn) [α-Pinene] . Output its pKd only.
result: 5.03

query: Quote pKd reported for C=C1CCC2CC1C2(C)C (stereo not drawn) [β-Pinene] please.
result: 4.88

====

ASSAYED TARGET: UniProt:A0A889XLB8
ASSAY PROTOCOL: Fluorescence-based competitive binding assay with 1-NPN probe
REPORTED CONDITIONS: competitive displacement of 1-NPN; protein/1-NPN both at 2 μM; ligand 2–30 μM; KD = IC50/(1 + [1-NPN]/K1-NPN); mean ± SE; read-out: KD
MEASUREMENT LABEL: pKd
Remember the convention: pKd equals -log10 of concentration in molar.

query: Look up and report measured pKd (UniProt:A0A889XLB8) for the following compound: CC/C=C\CCOC(=O)CCC [cis-3-Hexenyl butyrate]
result: 4.85

query: Find the measured pKd of CCCCCCCCCC=O with UniProt:A0A889XLB8 as test system.
result: 5.29

query: Give measured pKd for CC/C=C\CCOC(=O)CCCC [cis-3-Hexenyl n-valerate] (UniProt:A0A889XLB8).
result: 5.18

query: Please report the measured pKd for CC(=O)CC/C=C(\C)CCC=C(C)C tested on UniProt:A0A889XLB8.
result: 5.66

====

ASSAYED TARGET: ScinGOBP2 (Semiothisa cinerearia, UniProt A0A889XLB8)
Sequence (A0A889XLB8 entry or part of it): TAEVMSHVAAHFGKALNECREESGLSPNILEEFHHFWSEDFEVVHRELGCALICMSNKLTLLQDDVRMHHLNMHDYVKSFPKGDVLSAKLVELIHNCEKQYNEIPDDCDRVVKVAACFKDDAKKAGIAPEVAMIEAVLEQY
ASSAY PROTOCOL: Fluorescence-based competitive binding assay with 1-NPN probe
REPORTED CONDITIONS: competitive displacement of 1-NPN; protein/1-NPN both at 2 μM; ligand 2–30 μM; KD = IC50/(1 + [1-NPN]/K1-NPN); mean ± SE
Experimental: A total of 27 volatile compounds were selected for a fluorescence-based competitive binding assay based on previously reported information for S. cinerearia host plants. […] The fluorescent probe N-phenyl-1-naphthylamine (1-NPN) was excited at 337 nm, and emissions were recorded between 390 and 530 nm. […] The dissociation constants of 1-NPN and the proteins were calculated using the software GraphPad Prism 8.0. […]
MEASUREMENT LABEL: Kd

query: Using known records, supply Kd for C=CCCCCCCC
result: < 15 µM
